The measured values listed here are drawn from ChEMBL document CHEMBL1156221.

experiment: AUC in rat at 10 mg/kg, po by LC/API-MS/MS; format: ADME, organism-based; set-up: dose 10 mg/kg, route oral; settings: plasma
readoutType: AUC (ng·h/mL)

(1) Cc1ccc(-n2cnc3c(sc4nc(N)nc(N)c43)c2=O)cc1
(2) Cc1ccc(-n2cnc3c(sc4nc(C)nc(N)c43)c2=O)cc1
In: For this pair, 1 and 2 , which shows a numerically higher AUC? Pick one and reply with its label.
Out: 2
(2: 2110 ng·h/mL, 1: 965 ng·h/mL)

====

biological target: UniProtKB Q13255; experiment: Antagonist activity at human mGluR1
Sequence (Q13255 whole entry): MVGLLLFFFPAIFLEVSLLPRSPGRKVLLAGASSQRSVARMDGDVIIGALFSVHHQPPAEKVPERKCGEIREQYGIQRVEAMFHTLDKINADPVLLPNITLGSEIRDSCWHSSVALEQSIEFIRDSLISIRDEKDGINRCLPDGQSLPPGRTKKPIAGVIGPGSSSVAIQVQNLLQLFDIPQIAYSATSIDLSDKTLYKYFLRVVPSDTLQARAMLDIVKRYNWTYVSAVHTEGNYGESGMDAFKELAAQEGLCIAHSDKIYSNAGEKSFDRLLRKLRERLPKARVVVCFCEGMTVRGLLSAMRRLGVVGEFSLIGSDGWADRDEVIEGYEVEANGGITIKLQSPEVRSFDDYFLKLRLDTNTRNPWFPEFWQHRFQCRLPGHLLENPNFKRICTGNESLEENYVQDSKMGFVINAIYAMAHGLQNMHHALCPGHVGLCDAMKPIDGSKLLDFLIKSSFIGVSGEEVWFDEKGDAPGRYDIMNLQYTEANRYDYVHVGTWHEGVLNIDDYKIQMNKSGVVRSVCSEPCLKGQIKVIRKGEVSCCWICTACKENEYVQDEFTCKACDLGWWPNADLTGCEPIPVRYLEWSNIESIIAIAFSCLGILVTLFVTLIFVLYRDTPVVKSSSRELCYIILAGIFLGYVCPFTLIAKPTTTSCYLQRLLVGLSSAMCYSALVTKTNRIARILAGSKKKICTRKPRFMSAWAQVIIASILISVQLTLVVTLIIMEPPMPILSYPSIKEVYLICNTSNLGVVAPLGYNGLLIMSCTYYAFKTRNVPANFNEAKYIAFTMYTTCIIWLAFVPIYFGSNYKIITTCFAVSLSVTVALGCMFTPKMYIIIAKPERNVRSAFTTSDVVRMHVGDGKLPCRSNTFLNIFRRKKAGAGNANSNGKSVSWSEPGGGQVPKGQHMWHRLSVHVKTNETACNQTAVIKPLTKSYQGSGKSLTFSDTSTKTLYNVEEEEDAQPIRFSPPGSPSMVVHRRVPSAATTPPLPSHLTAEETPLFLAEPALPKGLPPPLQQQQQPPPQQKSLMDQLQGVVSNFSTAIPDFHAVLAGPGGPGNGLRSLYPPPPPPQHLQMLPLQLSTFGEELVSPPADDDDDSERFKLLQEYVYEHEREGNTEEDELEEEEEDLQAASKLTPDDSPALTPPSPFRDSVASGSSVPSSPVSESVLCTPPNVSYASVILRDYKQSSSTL
pIC50: −log10 of the molar value.
readoutType: pIC50

(1) COc1ccc(-n2cnc3c(sc4nc(C)nc(N)c43)c2=O)cc1
(2) Cc1ccc(-n2cnc3c(sc4nc(S)nc(N)c43)c2=O)cc1
(3) Cc1nc(N)c2c(n1)sc1c(=O)n(-c3ccccc3)cnc12
(4) Cc1ccc(-n2cnc3c(sc4nc(C)nc(N)c43)c2=O)cc1
In: Order the records by pIC50, with each subsequent value no larger than the one before. The reply should contain the labels ordered as requested.
Out: 2, 3, 4, 1

====

target: Metabotropic glutamate receptor 1 (Rattus norvegicus, UniProt P23385); assay: Antagonist activity at rat mGluR1
Sequence (P23385 whole entry, looked up): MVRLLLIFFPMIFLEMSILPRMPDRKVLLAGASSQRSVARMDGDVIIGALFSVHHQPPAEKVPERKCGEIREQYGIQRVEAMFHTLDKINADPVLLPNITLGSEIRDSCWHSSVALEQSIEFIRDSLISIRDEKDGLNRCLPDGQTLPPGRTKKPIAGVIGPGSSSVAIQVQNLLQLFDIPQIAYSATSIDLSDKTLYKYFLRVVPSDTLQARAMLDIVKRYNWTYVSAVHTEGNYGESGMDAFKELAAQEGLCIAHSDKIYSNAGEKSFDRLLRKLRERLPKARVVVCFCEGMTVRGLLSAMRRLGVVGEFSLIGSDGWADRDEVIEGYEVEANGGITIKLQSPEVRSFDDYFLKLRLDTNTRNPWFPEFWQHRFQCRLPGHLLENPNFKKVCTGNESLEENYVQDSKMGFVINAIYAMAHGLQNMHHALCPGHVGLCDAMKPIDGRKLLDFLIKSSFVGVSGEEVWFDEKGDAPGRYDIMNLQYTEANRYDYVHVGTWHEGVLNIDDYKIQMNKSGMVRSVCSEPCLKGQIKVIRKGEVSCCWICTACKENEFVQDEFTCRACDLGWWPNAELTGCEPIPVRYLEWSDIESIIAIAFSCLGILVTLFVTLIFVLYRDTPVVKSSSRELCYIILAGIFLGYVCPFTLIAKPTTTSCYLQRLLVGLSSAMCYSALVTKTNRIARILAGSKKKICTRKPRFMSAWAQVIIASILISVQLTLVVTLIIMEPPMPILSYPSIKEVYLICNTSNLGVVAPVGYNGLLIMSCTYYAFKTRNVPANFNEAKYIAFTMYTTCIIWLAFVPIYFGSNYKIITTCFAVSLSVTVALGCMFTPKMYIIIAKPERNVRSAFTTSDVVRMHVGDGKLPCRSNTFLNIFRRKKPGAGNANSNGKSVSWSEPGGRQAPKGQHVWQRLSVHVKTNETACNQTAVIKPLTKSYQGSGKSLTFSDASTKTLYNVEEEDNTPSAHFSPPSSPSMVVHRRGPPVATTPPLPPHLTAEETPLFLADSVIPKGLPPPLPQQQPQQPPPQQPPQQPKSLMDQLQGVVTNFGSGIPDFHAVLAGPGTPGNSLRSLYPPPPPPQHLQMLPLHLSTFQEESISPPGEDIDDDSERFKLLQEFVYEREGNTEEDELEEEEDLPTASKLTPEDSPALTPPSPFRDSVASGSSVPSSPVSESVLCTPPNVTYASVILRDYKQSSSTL
readoutType: pKi
By convention, pKi is the negative base-10 log of a molar concentration.

In: Param item = "Cc1ccc(-n2cnc3c(sc4nc(C)nc(N)c43)c2=O)cc1" ; retrieve measured pKi.
Out: 6.94

====

assay: in vivo; settings: rat, brain/plasma, po, 10 mg/kg
Description: Ratio of drug level in brain to plasma in rat at 10 mg/kg, po
readoutType: Kp

(I) Cc1ccc(-n2cnc3c(sc4nc(N)nc(N)c43)c2=O)cc1
(II) Cc1ccc(-n2cnc3c(sc4nc(C)nc(N)c43)c2=O)cc1
In: Compare I and II by numeric Kp and name the larger one. Record your answer as the label of the chosen record.
Out: I

====

target: Metabotropic glutamate receptor 5 (Homo sapiens); assay: Antagonist activity at human mGluR5
Sequence (P41594 whole entry): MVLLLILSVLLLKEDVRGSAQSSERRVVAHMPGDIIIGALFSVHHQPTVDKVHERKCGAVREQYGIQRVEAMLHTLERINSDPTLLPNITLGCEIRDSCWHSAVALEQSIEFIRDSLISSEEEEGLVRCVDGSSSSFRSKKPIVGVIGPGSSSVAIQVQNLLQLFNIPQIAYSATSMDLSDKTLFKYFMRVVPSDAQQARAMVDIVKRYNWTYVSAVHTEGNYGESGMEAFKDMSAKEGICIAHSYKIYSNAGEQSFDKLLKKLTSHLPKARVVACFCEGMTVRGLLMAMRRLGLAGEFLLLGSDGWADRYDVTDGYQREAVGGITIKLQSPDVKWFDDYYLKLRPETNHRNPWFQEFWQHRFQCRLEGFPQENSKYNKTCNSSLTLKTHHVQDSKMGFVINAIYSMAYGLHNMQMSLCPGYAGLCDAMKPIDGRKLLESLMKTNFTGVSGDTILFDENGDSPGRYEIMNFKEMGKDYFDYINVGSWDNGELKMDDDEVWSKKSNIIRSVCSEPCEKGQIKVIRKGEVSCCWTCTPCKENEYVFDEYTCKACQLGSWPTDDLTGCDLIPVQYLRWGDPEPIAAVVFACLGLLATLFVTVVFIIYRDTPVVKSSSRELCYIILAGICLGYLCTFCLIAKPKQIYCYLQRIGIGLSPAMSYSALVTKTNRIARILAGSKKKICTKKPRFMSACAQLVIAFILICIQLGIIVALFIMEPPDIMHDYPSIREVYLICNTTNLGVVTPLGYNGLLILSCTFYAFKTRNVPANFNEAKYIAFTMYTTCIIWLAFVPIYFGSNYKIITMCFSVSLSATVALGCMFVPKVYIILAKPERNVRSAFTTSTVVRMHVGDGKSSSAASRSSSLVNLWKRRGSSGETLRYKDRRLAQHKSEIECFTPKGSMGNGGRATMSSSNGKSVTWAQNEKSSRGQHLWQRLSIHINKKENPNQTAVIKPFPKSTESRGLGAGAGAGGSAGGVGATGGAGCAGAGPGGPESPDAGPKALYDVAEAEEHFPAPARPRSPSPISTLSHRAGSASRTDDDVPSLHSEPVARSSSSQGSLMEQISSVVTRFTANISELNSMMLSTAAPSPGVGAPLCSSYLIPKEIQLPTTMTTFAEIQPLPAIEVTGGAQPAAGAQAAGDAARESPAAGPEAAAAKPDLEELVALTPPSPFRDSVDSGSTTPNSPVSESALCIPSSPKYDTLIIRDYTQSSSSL
readoutType: IC50

Solved entries:
chemSmiles: Cc1ccc(-n2cnc3c(sc4nc(C(F)(F)F)nc(N)c43)c2=O)cc1
IC50: > 3 µM
//
chemSmiles: Cc1ccc(-n2cnc3c(sc4nc(N)nc(N)c43)c2=O)cc1
IC50: > 3 µM
//
chemSmiles: Cc1ccc(-n2cnc3c(sc4nc(S)nc(N)c43)c2=O)cc1
IC50: > 3 µM

In: Hello, I am looking for reported IC50 with Metabotropic glutamate receptor 5 (Homo sapiens) for "COc1ccc(-n2cnc3c(sc4nccc(N(C)C)c43)c2=O)cc1" . Could you help?
Out: > 3 µM

In: Observed IC50 on Metabotropic glutamate receptor 5 (Homo sapiens) for "Cc1ccc(-n2cnc3c(sc4[nH]c(=O)nc(N)c43)c2=O)cc1" , please.
Out: > 3 µM

In: Lab request: please report IC50 under test system Metabotropic glutamate receptor 5 (Homo sapiens) for "Cc1nc(N)c2c(n1)sc1c(=O)n(-c3ccc(Cl)cc3)cnc12"
Out: > 3 µM

In: Notebook: pull reported IC50 for Metabotropic glutamate receptor 5 (Homo sapiens), entry "Cc1nc(N)c2c(n1)sc1c(=O)n(-c3ccccc3)cnc12"
Out: > 3 µM

In: Short answer please: IC50, Metabotropic glutamate receptor 5 (Homo sapiens), entry "Cc1ccc(-n2cnc3c(sc4nc(C)nc(N)c43)c2=O)cc1"
Out: > 3 µM

In: What measured IC50 is associated with "COc1ccc(-n2cnc3c(sc4nc(C)nc(N)c43)c2=O)cc1" on Metabotropic glutamate receptor 5 (Homo sapiens)?
Out: > 3 µM

In: Return IC50 measured with Metabotropic glutamate receptor 5 (Homo sapiens) given this compound: "Cc1ccc(-n2cnc3c(sc4nc(-n5cccc5)nc(N)c43)c2=O)cc1"
Out: > 3 µM

In: # returns recorded IC50 (system: Metabotropic glutamate receptor 5 (Homo sapiens)) for "Cc1ccc(-n2cnc3c(sc4nc(C5CC5)nc(N)c43)c2=O)cc1"
Out: > 3 µM

In: Quick check: IC50 on Metabotropic glutamate receptor 5 (Homo sapiens), item "Cc1nc(N)c2c(n1)sc1c(=O)n(-c3ccc(F)cc3)cnc12" ?
Out: > 3 µM

In: API: value(readout= IC50, system= Metabotropic glutamate receptor 5 (Homo sapiens), query= "CNc1nc(N)c2c(n1)sc1c(=O)n(-c3ccc(C)cc3)cnc12" )
Out: > 3 µM

====

biological target: Metabotropic glutamate receptor 1 (Rattus norvegicus); experiment: Antagonist activity at rat mGluR1
readoutType: Ki (nM)
Give your result in nM as a bare value.

In: What does the record list as Ki for "Cc1ccc(-n2cnc3c(sc4nc(C)nc(N)c43)c2=O)cc1" ?
Out: 115

====

biological target: UniProt:Q13255; test: Antagonist activity at human mGluR1; assay type: functional
readoutType: IC50 (nM)

(1) Cc1ccc(-n2cnc3c(sc4nc(C5CC5)nc(N)c43)c2=O)cc1
(2) Cc1nc(N)c2c(n1)sc1c(=O)n(-c3ccc(Cl)cc3)cnc12
(3) Cc1nc(N)c2c(n1)sc1c(=O)n(-c3ccc(F)cc3)cnc12
In: Which order do these items take when sorted by rising IC50? List them. Response format: the labels, sorted as the prompt asks.
Out: 2, 3, 1
